Experiment: Antiproliferative activity against apoptosis resistant human OE21 cells after 72 hrs by MTT assay
Assay type: functional, cell-based
Conditions: OE21, 72 h
property: IC50 (µM)
Report only the number, with the unit µM understood.

1. O=C1NC(=O)/C(=C2/C(=O)Nc3ccccc32)N1
52.3
2. O=C1Nc2ccc(Br)cc2/C1=C1/Nc2ccccc2/C1=N\O [INDIRUBIN 2]
3.6

// switching to the query compound
INPUT: Which value of IC50 has been reported for O=C1Nc2c(F)cccc2/C1=C1/Nc2ccccc2/C1=N\O in the records?
OUTPUT: 9.2
